Cited source: patent US20020111353A1

target: JNK1 (Homo sapiens, UniProt P45983)
Sequence (P45983 whole entry, species assumed): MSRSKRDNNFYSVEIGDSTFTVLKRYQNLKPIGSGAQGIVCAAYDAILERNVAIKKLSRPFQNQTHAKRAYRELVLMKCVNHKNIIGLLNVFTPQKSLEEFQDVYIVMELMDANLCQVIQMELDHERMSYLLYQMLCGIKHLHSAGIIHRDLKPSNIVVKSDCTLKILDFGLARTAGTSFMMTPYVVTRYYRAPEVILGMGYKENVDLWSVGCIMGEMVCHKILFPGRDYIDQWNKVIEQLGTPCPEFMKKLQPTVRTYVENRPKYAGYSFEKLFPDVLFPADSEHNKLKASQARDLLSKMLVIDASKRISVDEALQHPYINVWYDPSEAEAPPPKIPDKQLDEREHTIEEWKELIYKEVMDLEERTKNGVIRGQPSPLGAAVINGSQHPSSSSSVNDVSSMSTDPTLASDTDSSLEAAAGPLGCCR
pKi: −log10 of the molar value.
observed property: pKi

>  <record smiles>
COc1ccc(-n2cc(-c3ccnc(NC4CCCCC4)n3)cn2)cc1

>  <subject of test>
JNK1 (Homo sapiens, UniProt P45983)

>  <observed property>
pKi

>  <result value>
5.00 to 5.70

$$$$
>  <record smiles>
c1ccc(Cn2cc(-c3ccnc(NC4CCCCC4)n3)cn2)cc1

>  <subject of test>
JNK1 (Homo sapiens, UniProt P45983)

>  <observed property>
pKi

>  <result value>
> 5.70

$$$$
>  <record smiles>
Clc1ccc(Cl)c(-n2cc(-c3ccnc(NC4CCCCC4)n3)cn2)c1

>  <subject of test>
JNK1 (Homo sapiens, UniProt P45983)

>  <observed property>
pKi

>  <result value>
> 5.70

$$$$
>  <record smiles>
Cc1c(-c2ccnc(Nc3ccc(Cl)cc3)n2)cnn1-c1ccccc1

>  <subject of test>
JNK1 (Homo sapiens, UniProt P45983)

>  <observed property>
pKi

>  <result value>
> 5.70

$$$$
